assay: Half life in rat at 5 mg/kg, iv measured upto 24 hrs by LC-MS/MS analysis; assay type: ADME, organism-based; details: in vivo
readoutName: half-life (min)
The response must be a number in min with no trailing unit.

Lookup: I would be grateful if you could share the reported half-life for Clc1ccc(COn2nnnc2-c2ccc(Cl)cc2)cc1 .
Found: 55.1

* * *

test: C0 in rat at 5 mg/kg, iv measured upto 24 hrs by LC-MS/MS analysis; assay type: ADME, organism-based; conditions: in vivo
readoutName: C0 at 24 h (ng/mL)
The response must be a number in ng/mL with no trailing unit.

Lookup: I would be grateful if you could share the reported C0 at 24 h for Clc1ccc(COn2nnnc2-c2ccc(Cl)cc2)cc1 .
Found: 5480

* * *

Catalogue of IC50 values
tested on: PC-3; experiment: Antiproliferative activity against human PC-3 cells measured after 3 days by celltiter-glo luminescence assay; type: functional, cell-based; settings: PC-3, 72 h

Below, each entry is followed by its recorded IC50 result.
compound	testedSystem	IC50
Fc1cccc(COn2nnnc2-c2ccc(Cl)cc2)c1	PC-3	> 100 µM
Clc1ccc(-c2nnnn2OCC2CC2)cc1	PC-3	> 10 µM
Fc1ccc(CO/N=C\c2ccc(Cl)cc2)cc1	PC-3	> 10 µM
COc1ccc(COn2nnnc2-c2ccc(Cl)cc2)cc1	PC-3	> 10 µM
Fc1ccc(-c2nnnn2OCc2ccc(Cl)cc2)cc1	PC-3	47.4 µM

Lookup: I would be grateful if you could share the reported IC50 for Clc1ccc(-c2nnnn2OCc2ccccc2)cc1 .
Found: 0.566 µM

Lookup: I would be grateful if you could share the reported IC50 for Clc1ccc(COn2nnnc2-c2ccc(Cl)cc2Cl)cc1 .
Found: > 100 µM

Lookup: I would be grateful if you could share the reported IC50 for COc1ccc(-c2nnnn2OCc2cccc(Cl)c2)cc1 .
Found: > 100 µM

Lookup: I would be grateful if you could share the reported IC50 for Fc1ccc(COn2nnnc2-c2ccc(Cl)cc2)cc1 .
Found: 25.7 µM

Lookup: I would be grateful if you could share the reported IC50 for Clc1cccc(COn2nnnc2-c2cccc(Cl)c2)c1 .
Found: > 100 µM

Lookup: I would be grateful if you could share the reported IC50 for CC(On1nnnc1-c1ccc(Cl)cc1)c1ccc(Cl)cc1 (stereo not given) .
Found: > 10 µM

Lookup: I would be grateful if you could share the reported IC50 for Clc1cccc(COn2nnnc2-c2ccc(Cl)cc2Cl)c1 .
Found: > 100 µM

Lookup: I would be grateful if you could share the reported IC50 for Clc1ccc(-c2nnnn2OCc2ccc(Br)cc2)cc1 .
Found: 52.1 µM

Lookup: I would be grateful if you could share the reported IC50 for Fc1ccc(-c2nnnn2OCc2cccc(Cl)c2)cc1 .
Found: > 100 µM

Lookup: I would be grateful if you could share the reported IC50 for Fc1ccc(On2nnnc2-c2ccc(F)cc2)cc1 .
Found: > 10 µM

* * *

assay: Metabolic stability in mouse liver microsomes assessed as intrinsic clearance incubated for 60 mins in presence of NADPH-regenerating system; assay type: ADME, Microsome; details: liver microsomes, read-out: CLH
readoutName: microsomal CLint (µL/min/mg)
The response must be a number in µL/min/mg with no trailing unit.

Lookup: I would be grateful if you could share the reported microsomal CLint for Clc1ccc(COn2nnnc2-c2ccc(Cl)cc2)cc1 .
Found: 21

* * *

assay: Kinetic solubility of the compound in 0.01 M HCl at pH 2 after 30 mins by nephelometry; type: physicochemical; conditions: read-out: Kinetic_solubility
Catalogue of solubility kinetic at 0.5 h values

Lookup: I would be grateful if you could share the reported solubility kinetic at 0.5 h for Clc1ccc(COn2nnnc2-c2ccc(Cl)cc2)cc1 .
Found: < 1.6 µg/mL

Lookup: I would be grateful if you could share the reported solubility kinetic at 0.5 h for Clc1ccc(-c2nnnn2OCc2cccc(Cl)c2)cc1 .
Found: < 1.6 µg/mL

* * *

assay: MRT (0 to infinity) in rat at 5 mg/kg, iv measured upto 24 hrs by LC-MS/MS analysis; assay type: ADME, organism-based; details: in vivo
readoutName: MRT inf (min)
The response must be a number in min with no trailing unit.

Lookup: I would be grateful if you could share the reported MRT inf for Clc1ccc(COn2nnnc2-c2ccc(Cl)cc2)cc1 .
Found: 20.2

* * *

test: Partition coefficient, logD of the compound at pH 7.4 by HPLC analysis; format: physicochemical; conditions: octanol/water
readoutName: logD
Reply with just the number.

Lookup: I would be grateful if you could share the reported logD for Clc1ccc(COn2nnnc2-c2ccc(Cl)cc2)cc1 .
Found: 4.5

Lookup: I would be grateful if you could share the reported logD for Clc1ccc(-c2nnnn2OCc2cccc(Cl)c2)cc1 .
Found: 4.5

* * *

assay: Antiproliferative activity against Ar-luc mouse Adipose stromal cell measured after 3 days by celltiter-glo luminescence assay; type: toxicity, cell-based; conditions: Ar-luc mouse adipose stromal cells
readoutName: IC50 at 3 days (µM)
The response must be a number in µM with no trailing unit.

Below, each entry is followed by its recorded IC50 at 3 days result.
Clc1ccc(-c2nnnn2OCc2ccc(Cl)nc2)cc1 3
Clc1cccc(COn2nnnc2-c2cccc(Cl)c2)c1 10.6
Fc1cccc(COn2nnnc2-c2ccc(Cl)cc2)c1 2.6
FC(F)(F)c1cccc(COn2nnnc2-c2ccc(Cl)cc2)c1 4.9
Fc1ccc(-c2nnnn2OCc2ccnc(Cl)c2)cc1 15

In the following, a different molecule is considered.
Lookup: I would be grateful if you could share the reported IC50 at 3 days for COc1ccc(-c2nnnn2OCc2cccc(Cl)c2)cc1 .
Found: 6.8

* * *

system: PC-3; experiment: Antiproliferative activity against human PC-3 cells measured after 3 days by celltiter-glo luminescence assay; assay type: functional, cell-based; settings: PC-3, 72 h
pIC50: −log10 of the molar value.
readoutName: pIC50

Below, each entry is followed by its recorded pIC50 result.
Clc1ccc(-c2nnnn2OCc2cccc(Cl)c2)cc1 5.17
Clc1ccc(On2nnnc2-c2ccc(Cl)cc2)cc1 < 5.00
Clc1ccc(-c2nnnn2OCc2cccc(Br)c2)cc1 < 4.00
Fc1ccc(-c2nnnn2OCc2ccc(Cl)c(Cl)c2)cc1 < 4.00
COc1ccc(-c2nnnn2OCc2ccc(Cl)cc2)cc1 4.52

In the following, a different molecule is considered.
Lookup: I would be grateful if you could share the reported pIC50 for COc1ccc(COn2nnnc2-c2ccc(OC)cc2)cc1 .
Found: < 5.00

* * *

tested on: PC-3; assay: Antiproliferative activity against human PC-3 cells measured after 3 days by celltiter-glo luminescence assay; type: functional, cell-based; settings: PC-3, 72 h
Catalogue of IC50 values

FC(F)(F)c1cccc(COn2nnnc2-c2cccc(C(F)(F)F)c2)c1 > 10 µM
Clc1ccc(-c2nnnn2OCc2ccc(Cl)nc2)cc1 > 100 µM
FC(F)(F)c1cccc(COn2nnnc2-c2ccc(Cl)cc2)c1 16.8 µM
Clc1ccc(COn2nnnc2-c2ccc(Cl)cc2)cc1 > 100 µM
Fc1ccc(On2nnnc2-c2ccc(Cl)cc2)cc1 > 10 µM

In the following, a different compound is considered.
Lookup: I would be grateful if you could share the reported IC50 for Fc1ccc(-c2nnnn2OCc2ccnc(Cl)c2)cc1 .
Found: > 100 µM

* * *

assay: Volume of distribution at steady state in rat at 5 mg/kg, iv measured upto 24 hrs by LC-MS/MS analysis; type: ADME, organism-based; conditions: in vivo, read-out: Vdss
readoutName: Vd (L/kg)
The response must be a number in L/kg with no trailing unit.

Lookup: I would be grateful if you could share the reported Vd for Clc1ccc(COn2nnnc2-c2ccc(Cl)cc2)cc1 .
Found: 1.53

* * *

experiment: Antiproliferative activity against Ar-luc mouse Adipose stromal cell measured after 3 days by celltiter-glo luminescence assay; type: toxicity, cell-based; settings: Ar-luc mouse adipose stromal cells
Catalogue of IC50 at 3 days values

Clc1cccc(COn2nnnc2-c2ccc(Cl)cc2Cl)c1 > 100 µM

Lookup: I would be grateful if you could share the reported IC50 at 3 days for Clc1ccc(-c2nnnn2OCc2ccc(Cl)c(Cl)c2)cc1 .
Found: > 60 µM

Lookup: I would be grateful if you could share the reported IC50 at 3 days for Fc1ccc(-c2nnnn2OCc2ccc(Cl)cc2)cc1 .
Found: > 100 µM

Lookup: I would be grateful if you could share the reported IC50 at 3 days for Clc1ccc(-c2nnnn2OCc2cccc(Cl)c2)cc1 .
Found: > 60 µM

Lookup: I would be grateful if you could share the reported IC50 at 3 days for Fc1ccc(-c2nnnn2OCc2cccc(Cl)c2)cc1 .
Found: > 60 µM

Lookup: I would be grateful if you could share the reported IC50 at 3 days for Clc1ccc(-c2nnnn2OCc2cccc(Br)c2)cc1 .
Found: > 100 µM

Origin of the recorded values: ChEMBL document CHEMBL5331078
